ASSAY TARGET: T1, human C-MET on stably transfected CHO-K1 cells (human, UniProt P08581 25-1390)
T1 construct: also called hucMET; human C-MET+ CHO-K1 cells
T1 sequence (P08581 25-1390 limits assumed): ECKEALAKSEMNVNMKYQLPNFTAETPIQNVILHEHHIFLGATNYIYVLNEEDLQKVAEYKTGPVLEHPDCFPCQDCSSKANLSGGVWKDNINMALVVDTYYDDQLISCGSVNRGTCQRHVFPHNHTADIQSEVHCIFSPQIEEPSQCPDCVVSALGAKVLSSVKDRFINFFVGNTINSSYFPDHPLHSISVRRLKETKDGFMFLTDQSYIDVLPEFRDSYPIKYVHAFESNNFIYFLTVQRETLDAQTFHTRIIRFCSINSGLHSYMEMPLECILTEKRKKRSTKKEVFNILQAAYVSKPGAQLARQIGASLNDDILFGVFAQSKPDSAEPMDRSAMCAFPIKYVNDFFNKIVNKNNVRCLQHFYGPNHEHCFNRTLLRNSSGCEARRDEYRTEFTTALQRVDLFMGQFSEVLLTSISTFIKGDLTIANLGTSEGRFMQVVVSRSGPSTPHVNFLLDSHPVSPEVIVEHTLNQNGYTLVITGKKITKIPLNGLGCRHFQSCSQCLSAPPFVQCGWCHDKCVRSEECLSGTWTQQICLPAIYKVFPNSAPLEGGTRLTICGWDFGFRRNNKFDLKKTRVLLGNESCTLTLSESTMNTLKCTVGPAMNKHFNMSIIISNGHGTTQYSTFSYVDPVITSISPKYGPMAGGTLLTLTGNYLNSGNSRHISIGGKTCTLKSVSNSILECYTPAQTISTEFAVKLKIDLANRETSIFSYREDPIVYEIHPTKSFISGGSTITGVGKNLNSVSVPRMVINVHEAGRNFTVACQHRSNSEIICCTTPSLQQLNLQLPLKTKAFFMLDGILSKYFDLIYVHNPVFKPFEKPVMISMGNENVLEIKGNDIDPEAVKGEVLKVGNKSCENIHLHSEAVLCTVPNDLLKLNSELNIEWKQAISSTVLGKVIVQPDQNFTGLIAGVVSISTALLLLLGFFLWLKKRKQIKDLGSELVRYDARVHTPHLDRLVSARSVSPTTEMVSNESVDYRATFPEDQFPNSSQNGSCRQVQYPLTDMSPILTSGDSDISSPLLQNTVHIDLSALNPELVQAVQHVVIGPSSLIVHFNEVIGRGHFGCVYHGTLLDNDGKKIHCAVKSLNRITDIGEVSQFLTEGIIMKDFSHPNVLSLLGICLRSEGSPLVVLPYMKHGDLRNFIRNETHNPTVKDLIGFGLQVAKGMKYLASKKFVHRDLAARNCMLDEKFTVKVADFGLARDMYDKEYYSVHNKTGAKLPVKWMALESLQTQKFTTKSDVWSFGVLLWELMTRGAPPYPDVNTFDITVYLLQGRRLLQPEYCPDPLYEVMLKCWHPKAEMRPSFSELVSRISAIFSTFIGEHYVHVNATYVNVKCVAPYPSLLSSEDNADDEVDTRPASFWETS
ASSAY NAME: flow cytometry, C-MET CHO-K1 cells
// reported EC50 for each item listed

BINDER	UNIT ANNOTATION	EC50
MH2 (antibody, IgG4, V domains shown) VH: QVQLVQSGAEVKKPGASVKVSCKASGYTFTSYTMHWVRQAPGQGLEWMGWINPNGGSTSYAQKFQGRVTMTRDTSTSTVYMELSSLRSEDTAVYYCARQEITTEFDYWGQGTLVTVSS VL: EIVLTQSPGTLSLSPGERATLSCRASQSVSSYAQSYLHWYQQKPGQAPRLLIYRGSTRETGIPDRFSGSGSGTDFTLTISRLEPEDFAVYYCQQSGSSPLTFGGGTKVEIK	nM	1.59
MH8 (antibody, IgG4, V domains shown) VH: QVQLVQSGAEVKKPGASVKVSCKASGYTFTSYTMHWVRQAPGQGLEWMGIINPSGGSTSYAQKFQGRVTMTRDTSTSTVYMELSSLRSEDTAVYYCARQEITTEFDYWGQGTLVTVSS VL: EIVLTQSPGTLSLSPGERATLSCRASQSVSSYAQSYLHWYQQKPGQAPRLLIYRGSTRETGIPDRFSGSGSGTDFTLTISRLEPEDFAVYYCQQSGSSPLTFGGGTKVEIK	nM	1.24

From: patent US20260042850A1
